Consider the following molecules; for each one, report its MIC.
System: Staphylococcus aureus
assay_method_text: Antibacterial activity against Staphylococcus aureus TISTR517 after 8 to 12 hrs by colorimetric microdilution broth technique
Assay type: functional
Note: a bare number is incomplete; add the unit.

// CN(C)c1ccc(/C=C/c2ccc3ccccc3[n+]2C)cc1.Nc1ccc(S(=O)(=O)[O-])cc1 : MIC value = 75 µg/mL

molecule CN(C)c1ccc(C=Cc2cccc[n+]2C)cc1.[I-] , MIC observed: 300 µg/mL

According to the records, this molecule CCOc1ccc(/C=C/c2cccc[n+]2C)cc1.Cc1ccc(S(=O)(=O)[O-])cc1 displays MIC of 150 µg/mL

MIC reported for this molecule CN(C)c1ccc(/C=C/c2ccc3ccccc3[n+]2C)cc1.O=S(=O)([O-])c1ccc(Cl)cc1 : 2.34 µg/mL

# MIC (molecule: CN(C)c1ccc(/C=C/c2cccc[n+]2C)cc1.COc1ccc(S(=O)(=O)[O-])cc1 ) is 150 µg/mL

The measured MIC associated with CN(C)c1ccc(/C=C/c2ccc3ccccc3[n+]2C)cc1.[I-] reads 18.8 µg/mL

Form field MIC, entry CN(C)c1ccc(/C=C/c2cccc[n+]2C)cc1.Cc1ccc(S(=O)(=O)[O-])cc1 : 300 µg/mL

For CCOc1ccc(/C=C/c2ccc3ccccc3[n+]2C)cc1.Nc1ccc(S(=O)(=O)[O-])cc1 the molecule record lists MIC as 37.5 µg/mL

For record CN(C)c1ccc(/C=C/c2ccc3ccccc3[n+]2C)cc1.O=S(=O)([O-])c1ccc(Br)cc1 the listed MIC is 2.34 µg/mL
